Listed here: items and their measured PC50.
test system: PSN1; experiment: Antiausteritic activity against human PSN1 cells in nutrient-deprived medium measured after 24 hrs by WST8 assay; format: functional
recorded.metric: PC50 (µM)

{"compound": "O=c1ccc2ccc(O)cc2o1 [UMBELLIFERONE]", "recorded.metric": "PC50", "qualifier.operator": ">", "result.value": 100}
{"compound": "COC(C)(C)[C@H](O)COc1c2ccoc2cc2oc(=O)ccc12", "recorded.metric": "PC50", "qualifier.operator": "=", "result.value": 89.7}
{"compound": "CC1(C)O[C@H]1COc1c2ccoc2cc2oc(=O)ccc12 [OXYPEUCEDANIN]", "recorded.metric": "PC50", "qualifier.operator": "=", "result.value": 74.6}
{"compound": "CO[C@@H](COc1c2ccoc2cc2oc(=O)ccc12)C(C)(C)O", "recorded.metric": "PC50", "qualifier.operator": "=", "result.value": 40.6}
{"compound": "COc1cc(C[C@H]2C(=O)OC[C@@H]2Cc2ccc(OC)c(OC)c2)ccc1O [ARCTIGENIN]", "recorded.metric": "PC50", "qualifier.operator": "=", "result.value": 0.7}
{"compound": "COC(C)(C)[C@H](O)CC/C(C)=C/COc1c2ccoc2cc2oc(=O)ccc12", "recorded.metric": "PC50", "qualifier.operator": "=", "result.value": 37.8}
{"compound": "C=C(C)[C@@H](O)COc1c2ccoc2cc2oc(=O)ccc12", "recorded.metric": "PC50", "qualifier.operator": ">", "result.value": 100}
{"compound": "C/C(=C\\COc1c2ccoc2cc2oc(=O)ccc12)CC[C@@H](O)C(C)(C)O", "recorded.metric": "PC50", "qualifier.operator": "=", "result.value": 76.1}
{"compound": "CC(C)=CCC/C(C)=C/COc1c2ccoc2cc2oc(=O)ccc12 [BERGAMOTTIN]", "recorded.metric": "PC50", "qualifier.operator": "=", "result.value": 9.4}
{"compound": "CC(C)=CCOc1c2ccoc2cc2oc(=O)ccc12 [ISOIMPERATORIN]", "recorded.metric": "PC50", "qualifier.operator": "=", "result.value": 41.7}
{"compound": "CC(C)(O)[C@H](O)COc1c2ccoc2cc2oc(=O)ccc12 [OXYPEUCEDANIN HYDRATE]", "recorded.metric": "PC50", "qualifier.operator": "=", "result.value": 89.7}

The measured values listed here are drawn from ChEMBL document CHEMBL4196136.
